Test system IRAK4 (Homo sapiens (Human), UniProt Q9NWZ3), IC50 listed for each of the molecules.

Guide cases for IC50, answers given:
Cn1cc(-c2cccc(-c3ncc(-c4cnn(C)c4)c(NCC4(C)CCC4)n3)c2)cn1 : 0.1 to 1 µM
Cn1cc(-c2cccc(-c3ncc(-c4cnn(C)c4)c(NC[C@@H](O)CO)n3)c2)cn1 : < 0.1 µM
CC(=O)N1CCC(O)(CNc2nc(-c3cccc(-c4cnn(C)c4)c3)ncc2-c2cnn(C)c2)CC1 : 0.1 to 1 µM
Cn1cc(-c2cccc(-c3ncc(-c4cnn(C)c4)c(NCC4CCNCC4F)n3)c2)cn1 (centres unmarked) : 0.1 to 1 µM
Cn1cc(-c2cccc(-c3ncc(-c4cnn(C)c4)c(NCC4CCC(F)(F)CC4)n3)c2)cn1 : < 0.1 µM

State the recorded IC50 for every item in the following list.
1. Cn1cc(-c2cccc(-c3ncc(-c4cnn(C)c4)c(NC4CCOCC4)n3)c2)cn1
2. Cn1cc(-c2cccc(-c3ncc(-c4cnn(C)c4)c(NCC4CC(O)C4)n3)c2)cn1 (centres unmarked)

1: < 0.1 µM; 2: < 0.1 µM

Consider Cn1cc(-c2cccc(-c3ncc(-c4ccn(C)n4)c(NC4CC(F)C4)n3)c2)cn1 (centres unmarked) . Its measured IC50 is 0.1 to 1 µM
